Assay: In vivo pharmacokinetic (PK) studies in rats
Set-up: species or system Sprague-Dawley (SD) rats
Settings: male, Sprague-Dawley, rat, plasma; 30 mg/kg, IV
quantity kind: AUC(0-inf) (ng·h/mL)

>>> reported_result("Cn1c(=O)ccc2ccc(F)c(OCCNC[C@H]3CN(c4cnc5c(n4)NC(=O)CO5)C(=O)O3)c21")
21800

* * *

Assay: In vivo pharmacokinetic (PK) studies in rats
Set-up: species or system Sprague-Dawley (SD) rats
Settings: male, Sprague-Dawley, rat, plasma; 300 mg/kg, PO
quantity kind: Cmax

>>> reported_result("Cn1c(=O)ccc2ccc(F)c(OCCNC[C@H]3CN(c4cnc5c(n4)NC(=O)CO5)C(=O)O3)c21 [Compound 2]")
"11100 ng/mL"
